# assay-overview: Toxicity liver stage against HepG2, at 10uM
# Type: cell-based
# Design: test concentration 10 uM, cell line HepG2-A16-CD81EGFP
# experimental-setup: human, HepG2-A16-CD81EGFP cells; read-out: INHIBITION
observed-property: cytotoxicity at 10 µM (%)
Give just the number in %; leave the unit off.

Would you kindly share the measured cytotoxicity at 10 µM for O=C(Nc1ccccc1F)c1nn(C2CCS(=O)(=O)C2)c2c1CCCC2 (configuration not stated) ?
6.17

// lookup cytotoxicity at 10 µM for CNc1cc(N2CCCC2CNCc2cccc(C(N)=O)c2)ncn1 (configuration not stated)
-7.72

Could you tell me which cytotoxicity at 10 µM is on file for O=C1CC(Nc2ccc3nccnc3n2)CN1c1ccccc1 (configuration not stated) ?
-7.76

Given the entry CC(C)CN1C[C@H]2CCN(c3ncccn3)CC[C@H]2S1(=O)=O , report its measured cytotoxicity at 10 µM.
-11.2

Item CC(C)[C@H]1CN(Cc2ccccc2C#N)C[C@@H]1NC(=O)C1CCOCC1 has what recorded cytotoxicity at 10 µM?
1.47

Recorded cytotoxicity at 10 µM of CCNC(=O)[C@@H]1C[C@H](NC(=O)c2cncnc2C)CN1Cc1ccsc1 , please.
2.12

----------
# assay-overview: Toxicity liver stage against HepG2, at 10uM
# Format: cell-based
# Parameters: test concentration 10 uM, cell line HepG2-A16-CD81EGFP
# experimental-setup: human, HepG2-A16-CD81EGFP cells; read-out: INHIBITION
Quick rule for you: cytotoxicity at 10 µM under -10% gets Y, anything else gets N.

Previously resolved entries follow.
- CCOC(=O)CCC(=O)N1CCC(CSCc2ccco2)CC1: Y
- O=C(NCCNc1cc(N2CCCC2)ncn1)c1cnccn1: Y
- CCC(=O)N1CCC(c2nc(N3CCCC3)ncc2S(C)(=O)=O)CC1: N

Given the entry Cc1cc(C)n(-c2ccc(C(C)NS(N)(=O)=O)cc2)n1 (centres undefined) , would its reported cytotoxicity at 10 µM be below -10%?
N

Field: below-cutoff. Rule: recorded cytotoxicity at 10 µM strictly less than -10%. Subject: COCCN1CCC(c2cncc(-c3cccc(Cl)c3)n2)CC1
Y

Criterion: cytotoxicity at 10 µM strictly below -10%. Is it met by OC(CN1CCN(Cc2ccc(F)c(F)c2)CC1)C1CC1 (centres undefined) ?
Y

hey, is cytotoxicity at 10 µM for CC(C)OCCN1CCC(Nc2ccc(C#N)cc2F)CC1 lower than -10% or not?
N

Does the reported cytotoxicity at 10 µM of the following compound sit strictly below -10%? CCOc1cccc2c1OCC(C(=O)NS(=O)(=O)c1cncc(Br)c1)=C2
N

----------
# assay-overview: Toxicity liver stage against HepG2, at 10uM
# Type: cell-based
# Parameters: test concentration 10 uM, cell line HepG2-A16-CD81EGFP
# experimental-setup: human, HepG2-A16-CD81EGFP cells; read-out: INHIBITION
observed-property: cytotoxicity at 10 µM (%)
# value in %; strip the unit string

In the examples that follow, each entry is paired with its recorded cytotoxicity at 10 µM.
* Cc1n[nH]c(C)c1CNCC(O)c1cccc(Cl)c1 (centres undefined) | 4.91
* CNc1ccnc(NCCC(=O)Nc2ccccc2C)n1 | -1.53

Returns the measured cytotoxicity at 10 µM for the input compound. Input: N#CCCN(CC1CCCO1)C(=O)c1ccsc1 (centres undefined)
0.325

State the recorded cytotoxicity at 10 µM for this entry: CC(C)N(C(=O)CCc1ccco1)C1CCOCC1
-5.63

Reported cytotoxicity at 10 µM for O=C(c1ccc(-n2ccnc2)cc1)N1CCCC(n2ccnc2)C1 (centres undefined) : what is it?
-21.1

Which cytotoxicity at 10 µM is listed for CC(C)(C)OC(=O)N1CCCc2ccc(NCc3ncc[nH]3)cc21 ?
-5.99

cytotoxicity at 10 µM lookup needed for O=C(CCc1cc(O)no1)N1CCC(Cc2ccc(F)cc2)CC1 , thanks.
-0.505
